molecular target: T1, soluble KDR extracellular domain (ECD) (Calbiochem) (human, UniProt P35968 20-764); assay: High Antigen ELISA, KDR coat 500 ng/mL, supernatant 1:6075
T1 construct: extracellular domain; Bought protein; also called KDR-ECD; VEGF Receptor 2 D1-7, Cat. #676490
T1 sequence (P35968 20-764): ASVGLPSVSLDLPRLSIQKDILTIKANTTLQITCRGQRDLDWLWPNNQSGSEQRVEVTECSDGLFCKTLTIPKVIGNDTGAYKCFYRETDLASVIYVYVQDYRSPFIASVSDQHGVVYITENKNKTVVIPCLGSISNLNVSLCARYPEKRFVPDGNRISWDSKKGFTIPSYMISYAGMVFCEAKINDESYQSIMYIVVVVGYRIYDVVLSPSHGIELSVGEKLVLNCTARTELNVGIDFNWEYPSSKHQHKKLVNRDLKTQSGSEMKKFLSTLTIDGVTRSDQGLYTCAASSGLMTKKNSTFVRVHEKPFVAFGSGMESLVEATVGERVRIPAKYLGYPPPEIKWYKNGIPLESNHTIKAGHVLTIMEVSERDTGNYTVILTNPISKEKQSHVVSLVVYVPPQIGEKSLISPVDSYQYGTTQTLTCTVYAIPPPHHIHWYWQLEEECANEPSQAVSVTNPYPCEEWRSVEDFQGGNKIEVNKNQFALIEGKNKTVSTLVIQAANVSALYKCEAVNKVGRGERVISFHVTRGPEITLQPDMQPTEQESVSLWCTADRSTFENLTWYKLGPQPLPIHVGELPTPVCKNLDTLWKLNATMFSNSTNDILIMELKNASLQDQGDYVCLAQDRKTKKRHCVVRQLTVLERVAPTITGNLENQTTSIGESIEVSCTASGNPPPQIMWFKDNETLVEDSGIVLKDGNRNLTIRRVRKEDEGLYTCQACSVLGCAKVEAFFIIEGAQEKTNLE
Assignment: determine reported ELISA reading for the given binders.
Answers are plain numbers.

# example entries with known answers
| binder | numericValue |
| --- | --- |
| 30F6 (antibody, V domains shown, Fully human mAb from XenoMouse hybridoma, tested as hybridoma supernatant) VH: QVQLVESGGGVVQPGRSLRLSCAASGFTFSTYGMHWVRQAPGKGLEWVAVIWYDGSNKYYADSVKGRFTISRDNSKNTLYLQMNSLRAEDTAVYYCACSYWNDDYYYGMDVWGQGTTVTVSS VL: DIQMTQSPSSLSASVGDRVIITCRASQNISSYLIWYQQKPGKAPNLLIHTTSSLQRGVPSRFSGSGSGTDFTLTISSLQPEDFATYYCQQSYSAPLTFGGGTKVEIK | 0.16 |
| 21A1 (antibody, V domains shown, Fully human mAb from XenoMouse hybridoma, tested as hybridoma supernatant) VH: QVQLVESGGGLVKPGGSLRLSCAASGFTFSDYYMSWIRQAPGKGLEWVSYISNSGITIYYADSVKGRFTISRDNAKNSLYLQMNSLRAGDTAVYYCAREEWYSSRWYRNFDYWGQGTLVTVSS VL: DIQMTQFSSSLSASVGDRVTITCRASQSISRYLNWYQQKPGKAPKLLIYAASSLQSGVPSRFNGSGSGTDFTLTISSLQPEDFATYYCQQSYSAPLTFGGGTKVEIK | 0.56 |

Here is another binder to look at.
INPUT: Can you look up the measured ELISA reading of 29A3 (antibody, V domains shown, Fully human mAb from XenoMouse hybridoma, tested as hybridoma supernatant) VH: QVQLQESGPGLVKPSETLSLTCTVSGGSISSYFWSWIRQPAGKGLEWIGRIYFSGRTNYNPSLKSRVTMSVETSKNQFSLKLNSVTAADTAVYYCARDGGWNYDVAFDYWGQGTLVTVSS VL: QAVLTQPSSLSASPGASASLTCTLRSGINVGTYRIYWYQQKPGSPPQYLLRYKSDSDQLQGSGVPSRFSGSKDASANAGILLISGLQSEDEADYYCMVWHSNTWVFGGGTKLTVL for me?
OUTPUT: 0.57
